Ref: patent US20110092591A1

Biological target: rhBACE-1 β-Secretase recombinant human (Homo sapiens)
Construct: purchased R&D Systems 931-AS
Sequence (P56817 46-457 limits assumed): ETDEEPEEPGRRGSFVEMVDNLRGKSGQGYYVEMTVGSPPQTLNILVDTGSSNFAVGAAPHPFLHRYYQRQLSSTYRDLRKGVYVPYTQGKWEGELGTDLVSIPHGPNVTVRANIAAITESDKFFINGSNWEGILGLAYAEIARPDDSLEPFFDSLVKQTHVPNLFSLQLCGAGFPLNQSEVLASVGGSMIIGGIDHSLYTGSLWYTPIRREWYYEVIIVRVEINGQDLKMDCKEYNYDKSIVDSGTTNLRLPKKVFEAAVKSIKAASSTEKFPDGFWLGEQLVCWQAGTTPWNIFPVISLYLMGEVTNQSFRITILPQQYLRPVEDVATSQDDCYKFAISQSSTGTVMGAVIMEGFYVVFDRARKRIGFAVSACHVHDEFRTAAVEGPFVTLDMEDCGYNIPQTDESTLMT
Assay: BACE assay (FRET, fluorogenic peptide substrate)
Type: biochemical
Details: compound at 1 μM; percentage of the enzyme activity (remaining)
Measurement Kind: % BACE Activity (%)
Note: unit % is implicit; provide only the numeric part.

CC(C)=CCc1cc(C(=O)O)ccc1O	100

CC(C)=CCC/C(C)=C/Cc1cc(C(=O)O)ccc1O has a reported % BACE Activity of 100

COCOC(=O)c1ccc(O)c(C/C=C(\C)CC/C=C(\C)CC/C=C(\C)CCC=C(C)C)c1 has a reported % BACE Activity of 100

CC(C)=CCC/C(C)=C/CC/C(C)=C/CC/C(C)=C/Cc1cc(C(=O)OCc2ccccc2)ccc1OCc1ccccc1 has a reported % BACE Activity of 100

COCOC(=O)c1ccc(OC(C)=O)c(C/C=C(\C)CC/C=C(\C)CC/C=C(\C)CCC=C(C)C)c1 has a reported % BACE Activity of 100
